# target.under.test: Ubiquitin-conjugating enzyme E2 N (Homo sapiens, UniProt P61088);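 also: Dose-response confirmation in a TR-FRET assay detecting UBC13-driven polyubiquitin chain formation, inhibition measured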
# Sequence (P61088 whole entry): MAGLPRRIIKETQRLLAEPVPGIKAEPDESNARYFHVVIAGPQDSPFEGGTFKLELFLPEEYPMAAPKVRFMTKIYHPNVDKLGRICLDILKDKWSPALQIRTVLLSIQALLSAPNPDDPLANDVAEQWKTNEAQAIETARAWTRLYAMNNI
# Assay type: functional
Activity calls are given as the source filed them.
Returns: one label drawn from class 1 for active, class 0 for inactive

# molecule, group
measured = [
    ("COc1ccc(/C=N/Nc2cc(C)nc3ccc(OC)cc23)c(OC)c1", "class 1"),
    ("O=C(Nc1cccc(C2=NCCN2)c1)Nc1cccc(C2=NCCN2)c1 [IMIDOCARB DIPROPIONATE]", "class 1"),
    ("C#CCOCCOCCOCCNc1nc(N2CCN(C(=O)[C@H](CCCN=C(N)N)n3cc(C(N)[C@@H](C)CC)nn3)CC2)nc(N2CCN(C(=O)[C@H](CCCCN)n3cc([C@@H](N)CC(N)=O)nn3)CC2)n1 (stereo not given in full)", "class 0"),
    ("CC(C)(C)c1ccc(C(O)CCCN2CCC(C(O)(c3ccccc3)c3ccccc3)CC2)cc1 (stereo not given)", "class 0"),
]

Moving on to the next molecule.
(Q) Which outcome was entered for the molecule O=C1c2cc(Cl)ccc2OC2(CCNCC2)C12CC(c1ccc(Cl)cc1)=NO2 (stereo not given) in this test?
(A) class 0

----------
Entries annotated with measured EC50
# experiment.notes: Luminescence Cell-Based Dose Response HTS to Identify Activators of Luciferase Translation or Activity in H4 […] Cells. [Related pubchem assays: 1829 (Project Summary), 1814 (Primary HTS)]
# Format: functional
The source made the active and inactive calls.

# molecule.smiles, EC50
measured = [
    ("N#Cc1ccc(-c2ccc(Cl)cc2)nc1SCC(=O)c1cccc(Cl)c1", "> 120 µM (not active)"),
    ("CC(C)(C)c1ccc(OCc2ccc(C(=O)NCc3cccnc3)o2)cc1", "5.94 µM (active)"),
]

(Q) Output EC50 of C/C(=N\n1nnnc1Nc1ccccc1)c1ccc(N)cc1
(A) > 120 µM (not active)

----------
# target.under.test: Calpain-2 catalytic subunit (Sus scrofa)
# Sequence (P43367 whole entry): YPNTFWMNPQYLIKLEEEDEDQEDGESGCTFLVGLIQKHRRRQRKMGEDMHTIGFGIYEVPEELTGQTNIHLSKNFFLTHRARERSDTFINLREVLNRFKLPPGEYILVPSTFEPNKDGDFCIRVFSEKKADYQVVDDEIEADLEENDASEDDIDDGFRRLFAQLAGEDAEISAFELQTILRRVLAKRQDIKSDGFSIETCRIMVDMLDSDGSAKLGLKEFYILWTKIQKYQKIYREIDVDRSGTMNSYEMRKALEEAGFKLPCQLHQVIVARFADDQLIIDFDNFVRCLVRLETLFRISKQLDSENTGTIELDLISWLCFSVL
# experiment.notes: pig calpain II inhibitor potency, dose response, biochemical, fluorogenic peptide substrate (AID 1420)
# Format: functional
The source made the active and inactive calls.
recorded.metric: IC50

Past entries and their recorded results:
# molecule, target.under.test, recorded.metric, test.result
records = [
    ("Cc1ccc(CNc2nc(Cl)c(C#N)s2)cc1", "Calpain-2 catalytic subunit (Sus scrofa)", "IC50", "4.33 µM (not active)"),
    ("CCn1c(COc2ccc(Cl)cc2)nnc1SC1CCc2ccccc2C1=O (stereo not given)", "Calpain-2 catalytic subunit (Sus scrofa)", "IC50", "7.24 µM (not active)"),
    ("Cc1ccc(NCC(=O)N/N=C/c2c[nH]c3ccccc23)cc1", "Calpain-2 catalytic subunit (Sus scrofa)", "IC50", "16.1 µM (not active)"),
    ("CC(=O)Nc1ccc(C2=NN(C)/C(=N/Cc3ccccc3)SC2)cc1", "Calpain-2 catalytic subunit (Sus scrofa)", "IC50", "8.93 µM (not active)"),
    ("O=C(Nc1ccc(Oc2cccnc2)nc1)c1ccc(C(F)(F)F)cc1", "Calpain-2 catalytic subunit (Sus scrofa)", "IC50", "48.1 µM (not active)"),
    ("CCCc1cc(-c2nnc(S)n2CC(C)C)cs1", "Calpain-2 catalytic subunit (Sus scrofa)", "IC50", "> 50 µM (not active)"),
    ("CCCCSc1nnc2c(n1)OC(C(=O)c1ccccc1)Nc1ccccc1-2 (stereo not given)", "Calpain-2 catalytic subunit (Sus scrofa)", "IC50", "> 50 µM (not active)"),
    ("Cc1noc(C)c1COC(=O)CNC(=O)c1cccc(F)c1", "Calpain-2 catalytic subunit (Sus scrofa)", "IC50", "> 50 µM (not active)"),
]

(Q) Output IC50 of CO/N=C/c1ccc(Sc2ccccc2N)c([N+](=O)[O-])c1
(A) 9.01 µM (not active)

(Q) Output IC50 of CCOC(=O)c1sc(SCC(=O)Nc2ccc(N(C)C)cc2)nc1N
(A) 30.7 µM (not active)

(Q) Output IC50 of COc1cccc(CNc2ccc([N+](=O)[O-])c(NCC(=O)O)n2)c1
(A) 5.38 µM (active)

(Q) Output IC50 of Cc1ccc(C)c(OCCCC(=O)Nc2nccs2)c1
(A) > 50 µM (not active)

(Q) Output IC50 of CC(C)c1ccc(-c2noc(C3CCCN(C(=O)c4ccc(F)cc4F)C3)n2)cc1 (stereo not given)
(A) 9.51 µM (not active)

(Q) Output IC50 of Cc1cccc(OCCC(=O)Nc2ccc(C)c(S(=O)(=O)N3CCCCC3)c2)c1
(A) 5.33 µM (not active)

(Q) Output IC50 of CSc1ncccc1C(=O)OCC(=O)Nc1ccc2c(c1)OCO2
(A) < 0.4 µM (not active)
